system tested: T1, CD3-specific binding domain (SEQ ID NO: 3) (biotinylated when used as immobilized SPR ligand (site not stated))
T1 construct: also called α-CD3 DARPin
T1 chain: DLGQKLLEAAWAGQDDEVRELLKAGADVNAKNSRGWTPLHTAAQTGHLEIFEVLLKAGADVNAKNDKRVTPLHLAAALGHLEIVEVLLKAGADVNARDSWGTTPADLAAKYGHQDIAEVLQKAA
assay info: SPR; KD on CD3-specific binding domain (Ligand1) divided by KD on VEGF165 (Ligand2)
Threshold-based label: KD ratio (Ligand1/Ligand2) under 2000 gives yes (1), KD ratio (Ligand1/Ligand2) not under 2000 gives no (0).

Below, 2 binders whose answers are already recorded.
binder	assigned label
2-in-1 DARPin 17 (SEQ ID NO: 10) (designed binder, N3C mono-domain; purified by its His-tag) DLGKKLLQAARAGQLDEVRELLKAGADVNAKDSTGWTPLHLAAPWGHPEIVEVLLKAGADVNAKDFQGWTPLHLAAAAGHLEIVEVLLKAGADVNAKDWLGWTPLHLAASHGHLEIVEVLLKAGADVNAQDKSGKTPADLAARAGHQDIAEVLQKAA	no (0)
2-in-1 DARPin 11 (SEQ ID NO: 6) (designed binder, N3C mono-domain; purified by its His-tag) DLDKKLLEAARAGQDDEVRILLKAGADVNAKDSTGWTPLHLAAPWGHPEIVEVLLKAGADVNAKDVYGWTPLHIAAASGHLEIVEVLLKAGADVNAKDWLGWTPLHLAASHGHLEIVEVLLKAGADVNAQDKSGKTPADLAARAGHQDIAEVLQKAA	yes (1)

Does 2-in-1 DARPin 18 (SEQ ID NO: 11) (designed binder, N4C mono-domain; purified by its His-tag) DLDKKLLEAARAGQDDEVRILLKAGADVNAKDSTGWTPLHLAAPWGHPEIVEVLLKAGADVNAKDFQGWTPLHLAAAAGHLEIVEVLLKAGADVNAKDVYGWTPLHIAAASGHLEIVEVLLKAGADVNAKDWLGWTPLHLAASHGHLEIVEVLLKAGADVNAQDKSGKTPADLAARAGHQDIAEVLQKAA have KD ratio (Ligand1/Ligand2) strictly under 2000? yes (1)

Does 2-in-1 DARPin 15 (SEQ ID NO: 9) (designed binder, N3C mono-domain; purified by its His-tag) DLDKKLLEAARAGQDDEVRILLKAGADVNAKDSTGWTPLHLAAPWGHPEIVEVLLKAGADVNAKDFQGWTPLHLAAAAGHLEIVEVLLKAGADVNAKDWLGWTPLHLAASHGHLEIVEVLLKAGADVNAQDKSGKTPADLAARAGHQDIAEVLQKAA have KD ratio (Ligand1/Ligand2) strictly under 2000? no (0)

Does 2-in-1 DARPin 19 (SEQ ID NO: 12) (designed binder, N4C mono-domain; purified by its His-tag) DLDKKLLEAARAGQDDEVRILLKAGADVNAKDSTGWTPLHLAAPWGHPEIVEVLLKAGADVNAKDFKGWTPLHLAAAAGHLEIVEVLLKAGADVNAKDVYGWTPLHLAAAAGHLEIVEVLLKAGADVNAKDWLGWTPLHLAASHGHLEIVEVLLKAGADVNAQDKSGKTPADLAARAGHQDIAEVLQKAA have KD ratio (Ligand1/Ligand2) strictly under 2000? yes (1)
